System: PPARg:RXRa 90nM:30nM, anti-RXR (NR concentration 90 nM, RXRa partner concentration 30 nM)
Assay: PBM binding z-score (relative to random genomic background probes); higher = stronger binding; sequences stand for … in GC…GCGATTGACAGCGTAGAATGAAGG
Would you mind classing the entries by PBM binding z-score? Ranges: label 0: < 2; label 1: ≥ 2 and < 6; label 2: ≥ 6

• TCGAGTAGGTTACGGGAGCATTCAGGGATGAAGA = label 0
• CTCGAAAGGTGGTGCTCAGGTGAGTATACCAAAC = label 0
• CGAACTAGGTGAAAGGACAGTGAAAGGCGACGTA = label 2
• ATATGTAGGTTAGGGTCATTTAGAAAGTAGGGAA = label 2
• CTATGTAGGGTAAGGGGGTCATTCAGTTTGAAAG = label 2
• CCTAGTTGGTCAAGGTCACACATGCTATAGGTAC = label 1
• CCGAGTAGGGTACGAGGGGGCATTCAGTGCGAAT = label 0
• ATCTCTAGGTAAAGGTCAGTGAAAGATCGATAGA = label 2
• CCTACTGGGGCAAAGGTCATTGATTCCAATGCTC = label 2
• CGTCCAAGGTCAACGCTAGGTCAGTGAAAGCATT = label 1
• CCTACTGGGCCATTCAGAGGTCATTGTTCATATG = label 1
• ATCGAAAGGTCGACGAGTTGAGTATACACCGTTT = label 0

###

Test system: PPARg homodimer (NR concentration 180 nM)
Test: PBM binding z-score (relative to random genomic background probes); higher = stronger binding; sequences stand for … in GC…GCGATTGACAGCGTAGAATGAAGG
measured.quantity: PBM binding z-score

* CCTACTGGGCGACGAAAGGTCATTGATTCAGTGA | 1.98
* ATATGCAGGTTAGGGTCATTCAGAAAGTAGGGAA | 2.85
* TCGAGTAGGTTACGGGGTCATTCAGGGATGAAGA | 2.46
* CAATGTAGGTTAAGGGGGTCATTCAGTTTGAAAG | 7.74
* CTATGTAAGTTAAGGGGGTCATTCAGTTTGAAAG | 3.28
* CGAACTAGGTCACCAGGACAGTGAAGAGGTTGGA | 2.24
* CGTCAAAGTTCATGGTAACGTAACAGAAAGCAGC | 3.91
* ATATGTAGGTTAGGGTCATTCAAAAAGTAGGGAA | 2.6
* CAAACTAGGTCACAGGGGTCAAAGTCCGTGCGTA | 3.99
* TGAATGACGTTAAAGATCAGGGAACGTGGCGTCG | -0.272
* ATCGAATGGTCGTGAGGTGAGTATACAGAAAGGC | 0.181
* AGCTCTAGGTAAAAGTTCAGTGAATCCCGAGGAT | 0.844
* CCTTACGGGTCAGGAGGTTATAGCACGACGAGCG | 1.97
* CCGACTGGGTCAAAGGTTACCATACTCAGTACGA | 1.89
* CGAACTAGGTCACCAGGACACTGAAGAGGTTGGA | 1.58
* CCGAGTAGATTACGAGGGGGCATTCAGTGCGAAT | 0.638
* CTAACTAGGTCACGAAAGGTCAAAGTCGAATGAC | 5.96
* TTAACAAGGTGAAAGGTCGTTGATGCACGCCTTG | 2.13
* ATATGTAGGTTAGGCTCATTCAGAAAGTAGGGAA | 0.501
* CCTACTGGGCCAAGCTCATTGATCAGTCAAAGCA | -0.727
* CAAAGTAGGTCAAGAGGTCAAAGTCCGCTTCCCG | 5.39
* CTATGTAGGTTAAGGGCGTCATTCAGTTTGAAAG | 1.62
* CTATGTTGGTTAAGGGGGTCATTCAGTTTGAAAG | 4.17
* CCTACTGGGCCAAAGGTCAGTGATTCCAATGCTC | 4.06
* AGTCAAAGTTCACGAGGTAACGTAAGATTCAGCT | 2.91
* TCTTGTAGATCAAAGGTCAAGAAAGCCGAAGCCT | 2.55
* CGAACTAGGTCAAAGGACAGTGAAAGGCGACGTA | 2.15
* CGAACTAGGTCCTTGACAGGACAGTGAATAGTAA | -0.238
* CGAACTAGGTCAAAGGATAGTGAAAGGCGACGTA | 1.36
* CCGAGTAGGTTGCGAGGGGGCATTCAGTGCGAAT | 0.668
* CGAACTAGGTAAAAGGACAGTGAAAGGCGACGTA | 0.371
* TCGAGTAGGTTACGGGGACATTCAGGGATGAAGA | 1.95
* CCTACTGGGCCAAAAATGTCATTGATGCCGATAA | -0.472
* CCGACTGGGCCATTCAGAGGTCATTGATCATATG | 3.14
* CTATGTAGATTAAGGGGGTCATTCAGTTTGAAAG | 4.49
* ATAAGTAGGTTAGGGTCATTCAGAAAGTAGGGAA | 3.79
* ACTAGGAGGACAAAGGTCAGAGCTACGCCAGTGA | 4.52
* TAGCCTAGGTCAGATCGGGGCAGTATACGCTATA | -0.167
* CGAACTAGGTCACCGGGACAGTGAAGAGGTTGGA | 2.28
* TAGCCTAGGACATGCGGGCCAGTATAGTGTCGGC | -1.04
* ATCGAAAGGTCGTGAGGTGAGTTTACAGAAAGGC | 2.01
* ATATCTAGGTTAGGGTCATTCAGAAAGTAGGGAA | 3.98
* TCGACTAGGTTACGGGGGCATTCAGGGATGAAGA | 2.41
* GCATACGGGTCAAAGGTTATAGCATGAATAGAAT | 3.95
* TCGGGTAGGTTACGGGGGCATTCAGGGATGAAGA | 3.68
* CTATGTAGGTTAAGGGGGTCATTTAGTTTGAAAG | 3.59
* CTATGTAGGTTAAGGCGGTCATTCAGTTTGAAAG | 0.855
* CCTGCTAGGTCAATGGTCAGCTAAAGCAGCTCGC | 0.944
* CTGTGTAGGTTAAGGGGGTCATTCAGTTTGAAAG | 3.62
* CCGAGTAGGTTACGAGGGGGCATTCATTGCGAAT | 1.17
* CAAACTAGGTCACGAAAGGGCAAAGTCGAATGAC | 4.28

###

Recorded PBM binding z-score values for a group of sequences are listed next.
Tested on: VDR:RXRa (NR concentration 270 nM, RXRa partner concentration 90 nM)
Experiment: PBM binding z-score (relative to random genomic background probes); higher = stronger binding; sequences stand for … in GC…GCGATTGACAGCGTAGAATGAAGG
measured.quantity: PBM binding z-score

- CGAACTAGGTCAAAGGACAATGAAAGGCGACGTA: 1.73
- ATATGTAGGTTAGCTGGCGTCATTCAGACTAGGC: -0.12
- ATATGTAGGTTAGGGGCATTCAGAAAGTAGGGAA: 1.44
- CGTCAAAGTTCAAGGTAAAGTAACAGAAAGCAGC: 3.4
- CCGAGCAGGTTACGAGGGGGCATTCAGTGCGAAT: 5.27
- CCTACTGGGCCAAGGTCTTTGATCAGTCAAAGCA: -0.509
- ATATGTAGGTTAGGGTCCTTCAGAAAGTAGGGAA: 0.818
- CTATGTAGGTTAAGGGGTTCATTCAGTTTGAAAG: 7.62
- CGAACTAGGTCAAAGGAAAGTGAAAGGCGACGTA: 0.89
- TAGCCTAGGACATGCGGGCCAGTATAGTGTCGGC: -0.777
- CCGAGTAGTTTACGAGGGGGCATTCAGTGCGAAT: 4.03
- CTATGTAGGTTAAGGAGGTCATTCAGTTTGAAAG: 6.83
- CGTGCAAGGTCAGAGAGGTCAGTGAATGCCGAGT: 7.22
- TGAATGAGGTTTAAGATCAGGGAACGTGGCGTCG: -0.255
- ATATGTAGGTTATCGGGTCATTCATTTTGCGCAT: 3.52
- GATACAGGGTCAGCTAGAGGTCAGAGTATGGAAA: 6.14
- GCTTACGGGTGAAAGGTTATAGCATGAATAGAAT: 2.17
- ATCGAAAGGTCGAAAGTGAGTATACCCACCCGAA: 2.18
- CCGAGTAGGTTACGATGGGGCATTCAGTGCGAAT: 0.842
- ATATGTAGGTTAAGGTCATTCAGAAAGTAGGGAA: 4.69
- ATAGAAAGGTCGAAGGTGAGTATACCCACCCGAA: 2.88
- CCTTACGGGTCAAGGTAATAGCACGGGTGGTACG: 2.65
- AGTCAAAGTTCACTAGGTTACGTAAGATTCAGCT: 4.71
- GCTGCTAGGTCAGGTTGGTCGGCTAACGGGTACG: 0.166
- ATATGTAGGTTTGGGTCATTCAGAAAGTAGGGAA: 2.04
- GGAACGAGGGCATTCGAGTTGATAGCATGGCGAT: 3.76

Source listed as the supplement of paper PMC6555819.
